System: SNB-75
Test method notes: NCI tumour cell line growth inhibition, 48 h
The source made the active and inactive calls. Cut-off read from the data, not from the text of the source: active = GI50 up to about 1.1 µM and inactive = higher.
Labels: active, inactive

* CN(C)CCNC(=O)c1ccc(NCCCN(C)CCCNc2ccc(C(=O)NCCN(C)C)c3nc4ccc([N+](=O)[O-])cc4c(O)c23)c2c(O)c3cc([N+](=O)[O-])ccc3nc12 | active
* Cc1nc(N)nc(N)c1-c1ccc(Cl)c(Cl)c1 | inactive
* O=C(OC[C@H]1C[C@H]2C(=O)OCCC[C@H]2O1)c1ccccc1 | inactive
* Cc1ccsc1/C=N/Nc1cc(C)c2cccc(C)c2n1 | inactive
* [O-][Cl+3]([O-])([O-])[O-].[O-][Cl+3]([O-])([O-])[O-].c1ccn2c(N3CCOCC3)[n+]3c4ccccc4[n+]4c(N5CCOCC5)n5ccccc5c4c3c2c1 | inactive
* CCN(CC)CCNC(=O)c1cc2cc(NC(=O)c3cc4cc(NC(=O)c5cc6cc([N+](=O)[O-])ccc6[nH]5)ccc4[nH]3)ccc2[nH]1 | inactive
* CN(C)c1ccc(/C=C2\N=C(c3ccc([N+](=O)[O-])cc3)OC2=O)cc1 | inactive
* N#Cc1c(-c2ccc(Cl)cc2)cc(-c2ccc(Nc3ccnc4cc(C(F)(F)F)ccc34)cc2)nc1N | inactive
* Cc1n[nH]c(=O)c2cc(-c3ccccc3)[nH]c12 | inactive
* COc1ccc(/N=N/C(=N\c2ccccc2)c2ccc(N(CCC#N)CCC#N)cc2)cc1 | inactive
* COc1ccc(C2OC(N)=C(C#N)C3=C2CCCC3C)cc1OC (centres undefined) | inactive
* CN(C(=O)C12C3(C(=O)C(C)(C)C)C4C5(C#N)C3C1(C(=O)C(C)(C)C)C5C42C(=O)C(C)(C)C)C(C)(C)C (centres undefined) | inactive
* C=CC(Cl)(CBr)CCC(Br)C(C)(C)Cl (centres undefined) | inactive
* c1ccc(CCNCc2ccco2)nc1 | inactive
* Clc1ccccc1-c1nc2cc(C34CC5CC(CC(C5)C3)C4)ccc2[nH]1 | inactive
* NC(=O)c1csc(C2(O)COC(CO)C2O)n1 (centres undefined) | inactive
* COC(=O)[C@@H]1Cc2cc(O)c(O)cc2C2(CCN(C)CC2)O1 | inactive
* Nc1cc2ncnc(Nc3cccc(Br)c3)c2cn1 | inactive
* COC(=O)[C@H]1COC(=S)N1C(=O)[C@@H](C)[C@H](O)C(C)C | inactive
